Test: Drug concentration at steady state in human at 2.5 to 10 mg, po QD after 24 hrs
Assay type: ADME, organism-based
Conditions: in vivo, read-out: Css
measuredEndpoint: concentration at 24 h (nM)

                                   molecule  experimentalresult
0  CCOC(=O)C1=C(C)NC(C)=C(C(=O)OC)C1c1cccc(Cl)c1Cl (stereo unspecified)                   4

###

Assay: AUC in human at 1% applied topically BID after 12 hrs
Format: ADME
Design: time < 12 hr
Conditions: topical or ocular
measuredEndpoint: AUC at 12 h (µM·h)

moleculeSmiles	experimentalResult
CC[C@@H]1/C=C(\C)C[C@H](C)C[C@H](OC)[C@H]2O[C@@](O)(C(=O)C(=O)N3CCCC[C@H]3C(=O)O[C@H](/C(C)=C/[C@@H]3CC[C@H](Cl)[C@H](OC)C3)[C@H](C)[C@@H](O)CC1=O)[C@H](C)C[C@@H]2OC	0.023

###

Assay: Drug concentration at steady state in human at 15 to 120 mg, po QD after 24 hrs
Type: ADME, organism-based
Settings: in vivo, read-out: Css
measuredEndpoint: concentration at 24 h

>>> print(df.to_string())
                             moleculesmiles       measuredendpoint  experimentalresult
0  COc1ccc2c(c1)C(=O)N(CCc1ccc(S(=O)(=O)NC(=O)NC3CCCCC3)cc1)C(=O)C2(C)C  concentration at 24 h              403 nM

###

Test: Drug concentration at steady state in human at 20 to 60 mg, po QD after 24 hrs
Type: ADME, organism-based
Settings: in vivo, read-out: Css
measuredEndpoint: concentration at 24 h (nM)

>>> df
                                   molecule  experimentalresult
0  COC(=O)C1=C(C)NC(C)=C(C(=O)OCC(C)C)C1c1ccccc1[N+](=O)[O-] (stereo unspecified)                   6

###

Assay: AUC in human at 2.5 to 10 mg, po QD after 24 hrs
Format: ADME, organism-based
Details: in vivo
measuredEndpoint: AUC at 24 h (µM·h)

>>> print(df.to_string())
                                   compound  experimentalresult
0  CCOC(=O)C1=C(C)NC(C)=C(C(=O)OC)C1c1cccc(Cl)c1Cl (stereo unspecified) [FELODIPINE]               0.107

###

IC50 listing for selected molecules.
Molecular target: ATP-binding cassette sub-family C member 4 (Homo sapiens, UniProt O15439)
Sequence (O15439 whole entry): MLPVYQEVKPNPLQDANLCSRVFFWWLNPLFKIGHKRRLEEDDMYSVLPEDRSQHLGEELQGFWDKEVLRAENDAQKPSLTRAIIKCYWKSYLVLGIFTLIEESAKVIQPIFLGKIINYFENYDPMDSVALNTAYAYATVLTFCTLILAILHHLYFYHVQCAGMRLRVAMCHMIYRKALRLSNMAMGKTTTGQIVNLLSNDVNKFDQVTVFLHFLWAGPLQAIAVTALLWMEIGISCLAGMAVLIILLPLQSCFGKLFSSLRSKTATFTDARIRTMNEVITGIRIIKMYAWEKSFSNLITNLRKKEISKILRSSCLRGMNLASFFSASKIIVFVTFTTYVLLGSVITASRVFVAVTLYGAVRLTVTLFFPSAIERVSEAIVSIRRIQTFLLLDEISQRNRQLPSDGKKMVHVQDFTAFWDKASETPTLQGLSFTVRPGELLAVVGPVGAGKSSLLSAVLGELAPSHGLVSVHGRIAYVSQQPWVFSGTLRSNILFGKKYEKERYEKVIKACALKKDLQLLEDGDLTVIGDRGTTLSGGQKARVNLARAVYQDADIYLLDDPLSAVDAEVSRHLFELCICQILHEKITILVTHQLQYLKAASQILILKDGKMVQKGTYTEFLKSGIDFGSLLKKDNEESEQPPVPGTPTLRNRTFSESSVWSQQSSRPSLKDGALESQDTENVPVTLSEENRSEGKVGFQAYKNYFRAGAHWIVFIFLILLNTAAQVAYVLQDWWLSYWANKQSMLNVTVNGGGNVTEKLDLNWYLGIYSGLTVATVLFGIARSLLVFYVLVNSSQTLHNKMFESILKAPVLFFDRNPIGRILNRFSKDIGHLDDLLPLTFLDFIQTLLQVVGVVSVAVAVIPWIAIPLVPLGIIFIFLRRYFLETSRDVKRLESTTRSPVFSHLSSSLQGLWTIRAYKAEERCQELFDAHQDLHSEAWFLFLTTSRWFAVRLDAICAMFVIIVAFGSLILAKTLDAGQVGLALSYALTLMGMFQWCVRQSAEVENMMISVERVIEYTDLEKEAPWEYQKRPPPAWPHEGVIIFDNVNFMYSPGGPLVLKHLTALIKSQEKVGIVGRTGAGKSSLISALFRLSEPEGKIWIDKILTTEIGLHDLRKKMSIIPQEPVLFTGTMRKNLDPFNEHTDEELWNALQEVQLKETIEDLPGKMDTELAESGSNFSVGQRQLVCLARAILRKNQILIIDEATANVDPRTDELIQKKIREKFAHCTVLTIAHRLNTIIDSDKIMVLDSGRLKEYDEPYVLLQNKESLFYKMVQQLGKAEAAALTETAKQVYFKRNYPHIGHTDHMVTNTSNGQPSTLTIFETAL
Assay: Inhibition of human MRP4 overexpressed in Sf9 cell membrane vesicles assessed as uptake of [3H]-estradiol-17beta-D-glucuronide in presence of ATP and GSH measured after 20 mins by membrane vesicle transport assay
Counter-ions that a name gives are not always drawn.

molecule	IC50
C=CC1=C(C(=O)O)N2C(=O)[C@@H](NC(=O)/C(=N\O)c3csc(N)n3)[C@H]2SC1	11.6 µM
Nc1nc2c(ncn2COCCO)c(=O)[nH]1	> 133 µM
CN1CCc2cccc3c2[C@H]1Cc1ccc(O)c(O)c1-3	> 133 µM
C[C@H]1[C@H](OC(=O)CCC(=O)O)O[C@@H]2O[C@@]3(C)CC[C@H]4[C@H](C)CC[C@@H]1[C@@]24OO3 [ARTESUNATE]	> 133 µM
CC(=O)Nc1c(I)c(NC(C)=O)c(I)c(C(=O)O)c1I	> 133 µM
CC1(C)O[C@@H]2[C@@H](CO[C@@]3(COS(N)(=O)=O)OC(C)(C)O[C@@H]23)O1 [TOPIRAMATE]	> 133 µM
CC1(C)S[C@@H]2[C@H](NC(=O)[C@H](N)c3ccc(O)cc3)C(=O)N2[C@H]1C(=O)O	> 133 µM
CNCCC=C1c2ccccc2CCc2ccccc21	> 133 µM
Cc1cccc(C)c1OCC(=O)N[C@@H](Cc1ccccc1)[C@@H](O)C[C@H](Cc1ccccc1)NC(=O)[C@H](C(C)C)N1CCCNC1=O	47 µM
Cc1c(OCC(F)(F)F)ccnc1C[S+]([O-])c1nc2ccccc2[nH]1 (centres undefined)	> 133 µM
Cc1nnc(SCC2=C(C(=O)O)N3C(=O)[C@@H](NC(=O)Cn4cnnn4)[C@H]3SC2)s1 [CEFAZOLIN SODIUM]	54.2 µM
CC(=O)OCC(CCn1cnc2cnc(N)nc21)COC(C)=O	> 133 µM
CC(=O)Nc1ccc(O)cc1	> 133 µM
CCC(=O)O[C@]1(C(=O)SCF)[C@H](C)C[C@H]2[C@@H]3C[C@H](F)C4=CC(=O)C=C[C@]4(C)[C@@]3(F)[C@@H](O)C[C@@]21C [FLUTICASONE PROPIONATE]	> 133 µM
Cc1cc(=O)n(-c2ccccc2)n1C [ANTIPYRINE]	> 133 µM
CCN(CC)C(=O)/C(C#N)=C/c1cc(O)c(O)c([N+](=O)[O-])c1	6.8 µM
C#CCN[C@@H]1CCc2ccccc21 [RASAGILINE MESYLATE]	> 133 µM
Nc1ncn([C@H]2C[C@H](O)[C@@H](CO)O2)c(=O)n1	> 133 µM
OCCN1C[C@H](O)[C@@H](O)[C@H](O)[C@H]1CO	> 133 µM
CC(C)(C)NCC(O)c1cc(O)cc(O)c1 (centres undefined)	> 133 µM
C[C@@H]1CN(c2c(F)c(N)c3c(=O)c(C(=O)O)cn(C4CC4)c3c2F)C[C@H](C)N1	> 133 µM
CC(C)[C@H]1CC[C@H](C(=O)N[C@H](Cc2ccccc2)C(=O)O)CC1 [NATEGLINIDE]	> 133 µM
C[C@@H]1C/C=C/C=C/C=C/C=C/[C@H](O[C@@H]2O[C@H](C)[C@@H](O)[C@H](N)[C@@H]2O)C[C@@H]2O[C@](O)(C[C@@H](O)C[C@H]3O[C@@H]3/C=C/C(=O)O1)C[C@H](O)[C@H]2C(=O)O	> 133 µM
COc1ccc(Cc2nccc3cc(OC)c(OC)cc23)cc1OC	23.1 µM
CO/N=C(\C(=O)N[C@@H]1C(=O)N2C(C(=O)O)=C(CSc3nc(=O)c(=O)[nH]n3C)CS[C@H]12)c1csc(N)n1	35.6 µM
Cc1ccccc1C(=O)Nc1ccc(C(=O)N2CCCC(O)c3cc(Cl)ccc32)c(C)c1 (centres undefined)	> 133 µM
CNC1(c2ccccc2Cl)CCCCC1=O (centres undefined)	> 133 µM
CC(C(=O)O)c1ccc2c(c1)Cc1cccnc1O2 (centres undefined)	9.8 µM
Clc1ccc(CO/N=C(\Cn2ccnc2)c2ccc(Cl)cc2Cl)c(Cl)c1 [OXICONAZOLE NITRATE]	> 133 µM
COc1cc(NC(C)CCCN)c2ncccc2c1 (centres undefined)	> 133 µM
Cc1cc(NS(=O)(=O)c2ccc(N)cc2)no1	> 133 µM
CC(C)NCC(O)COc1cccc2[nH]ccc12 (centres undefined)	> 133 µM
CCOc1cc2ncc(C#N)c(Nc3ccc(OCc4ccccn4)c(Cl)c3)c2cc1NC(=O)/C=C/CN(C)C	23 µM
COc1ccc2[nH]cc(CCNC(C)=O)c2c1	> 133 µM

###

Target: ATP-binding cassette sub-family C member 3 (Homo sapiens)
Sequence (O15438 whole entry): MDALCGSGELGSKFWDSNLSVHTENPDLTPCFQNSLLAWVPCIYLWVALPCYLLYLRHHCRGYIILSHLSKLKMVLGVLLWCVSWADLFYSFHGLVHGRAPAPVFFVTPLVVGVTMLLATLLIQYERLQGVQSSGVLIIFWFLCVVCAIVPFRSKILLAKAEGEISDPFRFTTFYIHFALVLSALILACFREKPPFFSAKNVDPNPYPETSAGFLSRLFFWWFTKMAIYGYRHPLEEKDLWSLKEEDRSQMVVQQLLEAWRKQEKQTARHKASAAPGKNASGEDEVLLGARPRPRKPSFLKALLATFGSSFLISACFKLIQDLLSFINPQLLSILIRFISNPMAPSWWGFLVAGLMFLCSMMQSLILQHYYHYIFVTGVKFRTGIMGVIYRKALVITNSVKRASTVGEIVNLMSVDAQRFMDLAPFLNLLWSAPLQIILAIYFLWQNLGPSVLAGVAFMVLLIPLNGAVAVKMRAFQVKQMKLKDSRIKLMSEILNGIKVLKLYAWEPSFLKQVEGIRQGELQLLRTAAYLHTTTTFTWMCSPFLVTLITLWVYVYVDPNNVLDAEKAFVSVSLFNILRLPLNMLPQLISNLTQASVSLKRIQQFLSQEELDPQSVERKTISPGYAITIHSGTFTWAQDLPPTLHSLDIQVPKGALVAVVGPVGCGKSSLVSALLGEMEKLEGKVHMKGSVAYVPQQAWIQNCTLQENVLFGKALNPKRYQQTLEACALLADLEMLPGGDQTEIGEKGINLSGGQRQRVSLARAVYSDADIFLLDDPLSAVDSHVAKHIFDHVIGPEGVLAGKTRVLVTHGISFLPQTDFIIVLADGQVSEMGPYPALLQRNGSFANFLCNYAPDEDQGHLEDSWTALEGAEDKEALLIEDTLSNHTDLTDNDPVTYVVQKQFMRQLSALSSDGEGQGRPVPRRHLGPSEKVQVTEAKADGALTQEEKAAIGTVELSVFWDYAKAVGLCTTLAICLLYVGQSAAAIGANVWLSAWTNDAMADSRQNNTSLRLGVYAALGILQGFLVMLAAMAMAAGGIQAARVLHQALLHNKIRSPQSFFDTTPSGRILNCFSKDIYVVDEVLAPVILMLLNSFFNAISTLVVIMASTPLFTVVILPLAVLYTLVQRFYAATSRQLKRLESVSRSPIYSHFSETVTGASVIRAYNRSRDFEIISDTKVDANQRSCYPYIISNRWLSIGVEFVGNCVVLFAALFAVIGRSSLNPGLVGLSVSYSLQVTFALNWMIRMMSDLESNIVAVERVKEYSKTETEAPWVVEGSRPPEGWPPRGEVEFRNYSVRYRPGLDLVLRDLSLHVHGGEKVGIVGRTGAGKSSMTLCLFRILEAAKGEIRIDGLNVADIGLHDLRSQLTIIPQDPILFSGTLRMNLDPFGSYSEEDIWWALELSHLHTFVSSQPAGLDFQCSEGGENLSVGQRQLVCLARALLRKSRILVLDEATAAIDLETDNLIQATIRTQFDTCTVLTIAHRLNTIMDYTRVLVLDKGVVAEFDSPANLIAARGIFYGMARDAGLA
Test: Inhibition of human MRP3 overexpressed in Sf9 insect cell membrane vesicles assessed as uptake of [3H]-estradiol-17beta-D-glucuronide in presence of ATP and GSH measured after 10 mins by membrane vesicle transport assay
measuredEndpoint: IC50

molecule	measuredEndpoint	experimentalResult
COc1ccc2c(c1)c(CC(=O)O)c(C)n2C(=O)c1ccc(Cl)cc1 [INDOMETHACIN]	IC50	66 µM
CN1C(C(=O)Nc2ccccn2)=C(O)c2sc(Cl)cc2S1(=O)=O [LORNOXICAM]	IC50	> 133 µM
CC(C)C[C@H](NC(=O)[C@@H](COC(C)(C)C)NC(=O)[C@H](Cc1ccc(O)cc1)NC(=O)[C@H](CO)NC(=O)[C@H](Cc1c[nH]c2ccccc12)NC(=O)[C@H](Cc1cnc[nH]1)NC(=O)[C@@H]1CCC(=O)N1)C(=O)N[C@@H](CCCNC(=N)N)C(=O)N1CCC[C@H]1C(=O)NNC(N)=O [GOSERELIN ACETATE]	IC50	> 133 µM

###

Molecular target: Bile salt export pump (Homo sapiens, UniProt O95342)
Sequence (O95342 whole entry): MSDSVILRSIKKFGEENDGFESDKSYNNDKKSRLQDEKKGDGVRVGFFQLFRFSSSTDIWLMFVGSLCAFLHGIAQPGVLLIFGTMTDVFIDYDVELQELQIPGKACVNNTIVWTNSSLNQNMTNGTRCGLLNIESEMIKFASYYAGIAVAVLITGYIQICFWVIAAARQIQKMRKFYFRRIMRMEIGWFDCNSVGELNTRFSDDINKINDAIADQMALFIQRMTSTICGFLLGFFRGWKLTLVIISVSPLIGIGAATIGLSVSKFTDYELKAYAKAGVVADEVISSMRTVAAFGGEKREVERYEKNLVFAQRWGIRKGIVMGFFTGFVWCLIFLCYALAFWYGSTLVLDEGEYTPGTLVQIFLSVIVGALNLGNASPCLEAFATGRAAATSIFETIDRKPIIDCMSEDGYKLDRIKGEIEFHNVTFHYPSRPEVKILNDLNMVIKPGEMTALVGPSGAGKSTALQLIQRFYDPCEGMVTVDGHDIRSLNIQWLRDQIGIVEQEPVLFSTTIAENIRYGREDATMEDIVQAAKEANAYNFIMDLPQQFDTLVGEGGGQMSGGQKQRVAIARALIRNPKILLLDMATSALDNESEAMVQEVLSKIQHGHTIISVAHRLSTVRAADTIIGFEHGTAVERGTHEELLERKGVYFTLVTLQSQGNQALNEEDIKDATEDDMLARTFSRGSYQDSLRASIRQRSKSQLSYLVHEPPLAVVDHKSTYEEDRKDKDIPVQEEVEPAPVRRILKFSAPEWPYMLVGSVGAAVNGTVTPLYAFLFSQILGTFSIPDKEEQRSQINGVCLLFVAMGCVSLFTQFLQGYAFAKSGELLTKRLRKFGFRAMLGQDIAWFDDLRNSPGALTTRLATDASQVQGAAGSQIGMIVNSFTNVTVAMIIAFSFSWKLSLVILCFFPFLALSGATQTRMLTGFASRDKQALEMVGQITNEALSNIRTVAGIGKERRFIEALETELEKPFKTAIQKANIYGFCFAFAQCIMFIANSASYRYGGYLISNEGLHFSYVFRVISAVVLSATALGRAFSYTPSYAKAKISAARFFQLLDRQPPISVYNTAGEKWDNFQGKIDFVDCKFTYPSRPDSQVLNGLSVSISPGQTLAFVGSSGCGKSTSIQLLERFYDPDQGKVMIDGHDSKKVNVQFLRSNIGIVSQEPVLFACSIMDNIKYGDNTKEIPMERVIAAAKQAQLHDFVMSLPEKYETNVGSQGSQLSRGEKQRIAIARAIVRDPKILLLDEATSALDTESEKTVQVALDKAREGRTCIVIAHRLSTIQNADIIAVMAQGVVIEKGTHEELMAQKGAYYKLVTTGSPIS
Assay: Inhibition of human BSEP overexpressed in Sf9 cell membrane vesicles assessed as uptake of [3H]-taurocholate in presence of ATP measured after 15 to 20 mins by membrane vesicle transport assay
Type: ADME, cell-based
measuredEndpoint: IC50

>>> df
                             moleculesmiles  experimentalresult
0  Nc1nc(Cl)nc2c1ncn2[C@@H]1O[C@H](CO)[C@@H](O)[C@@H]1F            > 133 µM
1  CC(C)c1ccc2oc3nc(N)c(C(=O)O)cc3c(=O)c2c1              104 µM
2                  Clc1ccc2nsnc2c1NC1=NCCN1            > 133 µM
3  OCC(CO)N[C@H]1C[C@](O)(CO)[C@@H](O)[C@H](O)[C@H]1O            > 133 µM
4     CN1CCN(C2=Nc3cc(Cl)ccc3Nc3ccccc32)CC1            > 133 µM
